Hi there, I'd appreciate the recorded activity at 100 µM for every entry that follows.
System: LoVo cell line
Assay: Intracellular ROS level (DCFH-DA), LoVo cells
Assay type: cell-based
Conditions: Homo sapiens, 4 h, compound 100 μM, without H2O2, n = 5, read-out: ROS scavenging activity, Mean E/E0 ± SD, without H2O2
Answers are plain numbers, in %.

compound="Cc1cc(C)c(C(=O)NCc2nn(CC(=O)NN=Cc3cccc(Cl)c3)c(=S)o2)c(S)n1 [Compound 12]" system_name="LoVo cell line" units_text=% measured_number=91

// for each compound in input: emit activity at 100 µM
1. Cc1cc(C)c(C(=O)NCc2nn(CC(=O)NN)c(=S)o2)c(S)n1 [Compound 4]
2. O=C1O[C@H]([C@@H](O)CO)C(O)=C1O [Ascorbic acid, ascorbic acid, reference compound]
3. CN1C(C(=O)Nc2ccccn2)=C(O)c2ccccc2S1(=O)=O [Piroxicam, piroxicam, reference compound]
4. Cc1c(C)c2c(c(C)c1O)CCC(C)(C(=O)O)O2 (stereo not shown) [Trolox, trolox, reference compound]
5. CSc1ccc(/C=N\NC(=O)Cn2nc(CNC(=O)c3c(C)cc(C)nc3S)oc2=S)cc1 [Compound 8]
6. Cc1cc(C)c(C(=O)NCc2nn(CC(=O)NN=Cc3ccccc3)c(=S)o2)c(S)n1 [Compound 5]

69
89
72
85
65
72

====

Molecular target: COX-2 (Homo sapiens, UniProt P35354)
Construct: purchased Cayman Chemical Company, Ann Arbor, MI, USA
Sequence (P35354 18-604): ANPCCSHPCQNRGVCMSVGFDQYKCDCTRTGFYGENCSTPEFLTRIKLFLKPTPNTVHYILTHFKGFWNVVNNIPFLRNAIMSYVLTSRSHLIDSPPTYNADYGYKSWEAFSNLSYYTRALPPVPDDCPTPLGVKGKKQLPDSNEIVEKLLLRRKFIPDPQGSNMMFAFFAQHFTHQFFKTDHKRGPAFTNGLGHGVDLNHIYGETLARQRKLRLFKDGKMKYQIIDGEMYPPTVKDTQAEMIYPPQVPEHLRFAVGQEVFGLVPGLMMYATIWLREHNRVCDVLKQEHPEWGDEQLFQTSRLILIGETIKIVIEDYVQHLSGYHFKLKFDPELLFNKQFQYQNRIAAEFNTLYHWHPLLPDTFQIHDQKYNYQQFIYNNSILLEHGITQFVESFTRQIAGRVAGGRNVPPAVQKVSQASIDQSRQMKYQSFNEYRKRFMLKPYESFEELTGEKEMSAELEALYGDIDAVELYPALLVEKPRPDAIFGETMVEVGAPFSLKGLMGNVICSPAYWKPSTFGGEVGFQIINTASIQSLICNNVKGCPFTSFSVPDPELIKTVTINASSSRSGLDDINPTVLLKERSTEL
Experiment: COX colorimetric inhibitor screening assay, COX-2
Type: biochemical
Settings: after 2 min of incubation, n = 5; read-out: IC50 [µM] ± SD COX-2
REPORTED METRIC: IC50 (µM)
Numbers only, in µM.

Illustrative cases are given below, each with its answer.
substance_smiles=Cc1cc(C)c(C(=O)NCc2nn(CC(=O)NN=Cc3ccc(C#N)cc3)c(=S)o2)c(S)n1 measured_number=103
substance_smiles=Cc1cc(C)c(C(=O)NCc2nn(CC(=O)NN=Cc3ccccc3)c(=S)o2)c(S)n1 measured_number=187

Now examine the next entry.
Param item = "Cc1cc(C)c(C(=O)NCc2nn(CC(=O)NN=Cc3ccc(C(F)(F)F)cc3)c(=S)o2)c(S)n1" ; retrieve measured IC50.
170
